The reported numbers originate from paper PMC6318274.

Test system: HIV-1 Env-pseudoviruses (208-strain panel)
Experiment: microbe, parasite or virus in culture
Type: cell-based
Settings: Human immunodeficiency virus 1, TZM-bl, T33-7, clade AG; read-out: IC50
property.measured: IC50 (nM)
Answers are plain numbers, in nM.

# input What value of measured IC50 is listed for COc1cnc(-c2csc(C(=O)NCCO)n2)c2[nH]cc(C(=O)C(=O)N3CCC(=C(C#N)c4ccccc4)CC3)c12 [BMS-818251] ?
# output 252

###

Test system: HIV-1 Env-pseudoviruses (30-strain panel)
Assay: Neutralization assay, cross-clade 30-strain panel (Env-pseudoviruses, TZM-bl target cells)
Type: cell-based
Details: Human immunodeficiency virus 1, TZM-bl, T253-11 (Clade AG); read-out: IC50
Method: Neutralization was measured using single-round-of-infection HIV-1 Env-pseudoviruses and TZM-bl target cells (ARP Cat No. #8129)[44],[45]. Compounds were prepared at 400 μM with 4% DMSO (dimethyl sulfoxide) in PBS (phosphate-buffered saline) and diluted 20 times as the starting concentration for serial dilution in the neutralization assays. […] After incubation at 37 °C for 2 days, infection of target cells was measured by luciferase activity. […]
Assign pIC50 to each entry below.
Numbers only, as −log10 of the molar value.

As a guide, the following entries are already answered.
O=C(C(=O)N1CCN(C(=O)c2ccccc2)CC1)c1c[nH]c2c(F)ccc(Br)c12 :: 6.27
COc1cnc(-n2cnc(C)n2)c2[nH]cc(C(=O)C(=O)N3CCN(C(=O)c4ccccc4)CC3)c12 :: 9.30

# input What value of measured pIC50 is listed for O=C(c1ccsc1)N1CCN(C(=O)C2(c3cccc(Cl)c3)CC2)CC1 [Compound 484, reference compound] ?
# output 5.47
